Test system: CEM-SS
assayOverview: Cytotoxicity against human CEM-SS cells
Format: cell-based
studyConditions: cem-ss
reportedMetric: CC50

compound | testValue
CCN(CC)CC(C)(O)[C@H]1CCc2c(c(C)cc(O)c(=O)c2O)C1 (mixture of isomers) | > 50 µM
CCSCC(C)(O)[C@H]1CCc2c(c(C)cc(O)c(=O)c2O)C1 (mixture of isomers) | 25.8 µM
Cc1cc(O)c(=O)c(O)c2c1C[C@@H](C(C)(O)CS(=O)(=O)c1ccccc1)CC2 (mixture of isomers) | > 50 µM
Cc1cc(O)c(=O)c(O)c2c1C[C@@H](C(C)(O)C[S+]([O-])c1ccccc1)CC2 (mixture of isomers) | > 50 µM

---

System: Human immunodeficiency virus 1
assayOverview: Antiviral activity against HIV1 RF infected in human CEM-SS cells assessed as protection against virus-induced cytopathic effect
Type: functional, organism-based
studyConditions: Human immunodeficiency virus 1, RF, CEM-SS; read-out: EC50
pEC50: −log10 of the molar value.
pEC50 values by entry
reportedMetric: pEC50

compound | measurementTarget | testValue
Cc1cc(O)c(=O)c(O)c2c1C[C@@H](C(C)(O)CS(=O)(=O)c1ccccc1)CC2 (mixture of isomers) | Human immunodeficiency virus 1 | 4.67
Cc1cc(O)c(=O)c(O)c2c1C[C@@H](C(C)(O)CSCc1ccccc1)CC2 (mixture of isomers) | Human immunodeficiency virus 1 | 5.38
Cc1cc(O)c(=O)c(O)c2c1C[C@@H](C(C)(O)C[S+]([O-])c1ccccc1)CC2 (mixture of isomers) | Human immunodeficiency virus 1 | 4.84
Cc1cc(O)c(=O)c(O)c2c1C[C@@H](C(C)NCc1ccccc1)CC2 (mixture of isomers) | Human immunodeficiency virus 1 | 4.97
Cc1cc(O)c(=O)c(O)c2c1C[C@@H](C(C)(O)CN1CCCCC1)CC2 (mixture of isomers) | Human immunodeficiency virus 1 | 4.99
Cc1cc(O)c(=O)c(O)c2c1C[C@@H](C(C)(O)CNc1ccccc1)CC2 (mixture of isomers) | Human immunodeficiency virus 1 | 5.13
Cc1cc(O)c(=O)c(O)c2c1C[C@@H](C(C)(O)CSc1ccccc1)CC2 (mixture of isomers) | Human immunodeficiency virus 1 | 4.94
Cc1cc(O)c(=O)c(O)c2c1C[C@@H](C(C)(O)Cn1ccnc1)CC2 (mixture of isomers) | Human immunodeficiency virus 1 | 4.38
Cc1cc(O)c(=O)c(O)c2c1C[C@@H](C(C)O)CC2 (mixture of isomers) | Human immunodeficiency virus 1 | 5.16
